Tested on: Fibroblast
Run description: Incucyte cell viability with human fibroblast; also: filed as whole numbers so only -1 and 0 and 1 occur
Type: toxicity, cell-based
Test context: 12 h, 10 µM, compound concentration 10 uM, replicate number 1, timepoint 12 hours
Observation type: Growth Rate

- N#Cc1ccc(NC(=O)Nc2ccccc2Br)c2nn[nH]c12: 1
- CCC(=O)N1CCOc2c(cc(-c3ccc(OC)c(OC)c3)cc2OC[C@H]2CCCN(C)C2)C1: 1
- CCn1c(=O)c(-c2ccc(Cl)cc2Cl)cc2cnc(Nc3ccc(N4CCNCC4)c(F)c3)nc21: 0
- CN(C)c1ncnc(-c2ccc3nc(Nc4cc(CN5CCN(C(=O)CC(F)(F)F)CC5)ccn4)[nH]c3c2)c1Cl: 1
- CN1CCN(c2ccc(OC(F)(F)F)c(Nc3ncc4c(n3)-c3c(c(C(N)=O)nn3CCO)CC4)c2)CC1: 0
- CC[C@H](C)C(=O)O[C@H]1C[C@@H](C)C=C2C=C[C@H](C)[C@H](CC[C@@H]3C[C@@H](O)CC(=O)O3)[C@H]21: 1
- COc1ncc(-c2ccc3nccc(-c4ccnnc4)c3c2)cc1NS(=O)(=O)c1ccc(F)cc1F: 0

* * *

Below, each entry is listed with its recorded Growth Rate.
System: Fibroblast
Run description: Incucyte cell viability with human fibroblast; also: filed as whole numbers so only -1 and 0 and 1 occur
Type: toxicity, cell-based
Test context: 18 h, 10 µM, compound concentration 10 uM, replicate number 1, timepoint 18 hours
Observation type: Growth Rate

- C=CC(=O)Nc1ccc2ncnc(Nc3ccc(OCc4cccc(F)c4)c(Cl)c3)c2c1.Cc1ccc(S(=O)(=O)O)cc1: 0
- COc1cc(-c2cn([C@H]3CCc4c(F)cccc4N(CC(F)(F)F)C3=O)nn2)ccc1-n1cnc(C)c1: 1
- CCC(=O)Nc1cccc(Oc2nc(Nc3ccc(N4CCN(C)CC4)cc3OC)ncc2Cl)c1: 0
- CN(C)C(=O)N[C@H]1CC[C@H](CCN2CCN(c3cccc(Cl)c3Cl)CC2)CC1.Cl [CARIPRAZINE HYDROCHLORIDE]: 1
- C[C@@]1(C(=O)Nc2ccc(F)nc2)CCCN1c1nc(Nc2cc(C3CC3)n[nH]2)c2cccn2n1 [BMS-754807]: 0
- Cc1cc(Nc2nccc(C)n2)cc(-c2cnc([C@@]3(O)CC[C@H](C(=O)O)C(C)(C)C3)s2)c1 [MRL-SYKi]: 0
- CC(C)(C)NCC(O)COc1cccc2[nH]c(=O)[nH]c12.Cl (centres undefined): 1
- COc1ccc(CNC(=O)c2cc(-c3cncc(Cl)c3)cnc2-c2ccccn2)nc1OC [MK-1064]: 1
- Clc1cccc(-c2nnnn2Cc2cccnc2)c1Cl: 0

* * *

Tested on: U2OS
Run description: Multiplex assay against U2OS
Type: toxicity, cell-based
Test context: human, 48 h, 1 µM, compound concentration 1 uM, replicate 1
Observation type: Population Mitochondria Different-Phenotype (%)

* CN1CCCC(n2nc(Cc3ccc(Cl)cc3)c3ccccc3c2=O)CC1.Cl (stereo not drawn) [AZELASTINE HYDROCHLORIDE] | 37%
* O=C1NCN(c2ccccc2)C12CCN(CCCOc1ccc(F)cc1)CC2 [SPIRAMIDE] | 12%
* CN1CCN(c2ccc(OC(F)(F)F)c(Nc3ncc4c(n3)-c3c(c(C(N)=O)nn3CCO)CC4)c2)CC1 | 49%
* COc1cccc([C@@H](C)NCCCc2ccccc2Cl)c1.Cl [TECALCET HYDROCHLORIDE] | 34%
* CN(C)C(=O)/C(C#N)=C/c1ccc(-c2nc3cnc4[nH]ccc4c3n2C2CCCCC2)o1 | 7%
* C=CC(=O)Nc1cccc(C(=O)Nc2ccc(Nc3cc(-c4[nH]c(SC)nc4C)ccn3)cc2)c1 | 10%
* CC(C)(O)CNc1ncc(-c2ccnc(Nc3ccnc(Cl)c3)n2)c(CC2CC2)n1 | 10%
* CN(C)CC#Cc1ccc(OCCCc2sc(N3CCc4cccc(C(=O)Nc5nc6ccccc6s5)c4C3)nc2C(=O)O)c(F)c1 | 18%
* C[C@@H](NCCCc1cccc(C(F)(F)F)c1)c1cccc2ccccc12.Cl [CINACALCET HYDROCHLORIDE] | 11%
* Cl.N#Cc1ccc2[nH]cc(CCCCN3CCN(c4ccc5oc(C(N)=O)cc5c4)CC3)c2c1 [VILAZODONE HYDROCHLORIDE] | 10%
* Cc1nc(-c2ccc(-c3ccc(C(=O)N4CCc5cc6c(cc54)C4(CCN(C)CC4)CO6)cc3)c(C)c2)no1 | 15%
* Cn1cc(-c2[nH]c3cc(NC(=O)[C@H](N)C4CCCCC4)cc4c3c2C=NNC4=O)cn1 | 3%
* CN1CCC[C@@H]1CCO[C@](C)(c1ccccc1)c1ccc(Cl)cc1.O=C(O)/C=C/C(=O)O [CLEMASTINE FUMARATE] | 11%
* Cc1c(-c2ccc(O)cc2)n(Cc2ccc(OCCN3CCCCCC3)cc2)c2ccc(O)cc12 | 13%
* Cc1[nH]c(/C=C2\C(=O)Nc3ccc(S(=O)(=O)N(C)c4cccc(Cl)c4)cc32)c(C)c1C(=O)N1CCN(C)CC1 | 32%
* CN1CCN(CCOc2cc(OC3CCOCC3)c3c(Nc4c(Cl)ccc5c4OCO5)ncnc3c2)CC1 | 12%
* CNc1nc(NCc2ccc(NS(C)(=O)=O)cc2Cl)cc(-c2ccccn2)n1 | 21%
* COc1cc(-n2cnc3cc(-c4ccc(Cl)cc4)sc3c2=O)ccc1OCCN1CCCC1 | 28%

* * *

Listed next: entries and their corresponding Population Membrane Permeable-Phenotype (%).
System: U2OS
Run description: Multiplex assay against U2OS
Format: toxicity, cell-based
Test context: human, 12 h, 1 µM, compound concentration 1 uM, replicate 1
Observation type: Population Membrane Permeable-Phenotype (%)

• COc1ncc(-c2ccc3nccc(-c4ccnnc4)c3c2)cc1NS(=O)(=O)c1ccc(F)cc1F = 6
• NC(=O)Nc1cc(-c2cccc(F)c2)sc1C(=O)N[C@H]1CCCNC1 = 9
• Cc1c(-c2ccc(O)cc2)n(Cc2ccc(OCCN3CCCCCC3)cc2)c2ccc(O)cc12 = 3
• CN(C)CC#Cc1ccc(OCCCc2sc(N3CCc4cccc(C(=O)Nc5nc6ccccc6s5)c4C3)nc2C(=O)O)c(F)c1 = 14
• CC(C)(O)CNc1ncc(-c2ccnc(Nc3ccnc(Cl)c3)n2)c(CC2CC2)n1 = 8
• C[C@@H](NCCCc1cccc(C(F)(F)F)c1)c1cccc2ccccc12.Cl [CINACALCET HYDROCHLORIDE] = 4
• Cc1cc(C)cc(-c2cnc3cc(Cl)c(-c4cccc(O)c4)cc3c2OCCCN)c1 = 5

* * *

Tested on: HEK-293T
Run description: Multiplex assay against HEK293T
Format: toxicity, cell-based
Test context: human, 12 h, 1 µM, compound concentration 1 uM, replicate 2
Observation type: Population Mitotic Cells (%)

- C[C@@]1(C(=O)Nc2ccc(F)nc2)CCCN1c1nc(Nc2cc(C3CC3)n[nH]2)c2cccn2n1: 80
- CN1CCCC(n2nc(Cc3ccc(Cl)cc3)c3ccccc3c2=O)CC1.Cl (centres undefined) [AZELASTINE HYDROCHLORIDE]: 59
- C=CC(=O)Nc1cccc(C(=O)Nc2ccc(Nc3cc(-c4[nH]c(SC)nc4C)ccn3)cc2)c1: 94
- c1cn2cc(-c3ccc4cn[nH]c4c3)nc(Nc3ccc(N4CCOCC4)cc3)c2n1: 77

* * *

System: HEK-293T
Run description: Multiplex assay against HEK293T
Type: toxicity, cell-based
Test context: human, 48 h, 1 µM, compound concentration 1 uM, replicate 1
Observation type: Population Pyknosed Nuclei (%)

• OC1(c2ccc(Cl)cc2)CCN(Cc2c[nH]c3ccccc23)CC1 = 26
• Cn1cc(-c2[nH]c3cc(NC(=O)[C@H](N)C4CCCCC4)cc4c3c2C=NNC4=O)cn1 = 71
• Cc1[nH]c(/C=C2\C(=O)Nc3ccc(S(=O)(=O)N(C)c4cccc(Cl)c4)cc32)c(C)c1C(=O)N1CCN(C)CC1 = 29
• CNc1nc(NCc2ccc(NS(C)(=O)=O)cc2Cl)cc(-c2ccccn2)n1 = 19
• CN1CCC[C@@H]1CCO[C@](C)(c1ccccc1)c1ccc(Cl)cc1.O=C(O)/C=C/C(=O)O [CLEMASTINE FUMARATE] = 66
• Cc1c(-c2ccc(O)cc2)n(Cc2ccc(OCCN3CCCCCC3)cc2)c2ccc(O)cc12 = 16
• C=CC(=O)Nc1cccc(C(=O)Nc2ccc(Nc3cc(-c4[nH]c(SC)nc4C)ccn3)cc2)c1 = 45
• COc1cccc([C@@H](C)NCCCc2ccccc2Cl)c1.Cl [TECALCET HYDROCHLORIDE] = 11

* * *

System: Fibroblast
Run description: Multiplex assay against human fibroblast
Assay type: toxicity, cell-based
Test context: 24 h, 1 µM, compound concentration 1 uM, replicate 1
Known Population Mitotic Cells (%) of a selection of compounds
Observation type: Population Mitotic Cells (%)

• CC(C)NCC(O)COc1ccc(CCOCC2CC2)cc1.Cl (centres undefined) [BETAXOLOL HYDROCHLORIDE] = 70
• COc1cccc([C@@H](C)NCCCc2ccccc2Cl)c1.Cl [TECALCET HYDROCHLORIDE] = 43
• CN1CCN(c2ccc(OC(F)(F)F)c(Nc3ncc4c(n3)-c3c(c(C(N)=O)nn3CCO)CC4)c2)CC1 [ONVANSERTIB] = 46
• C=CC(=O)Nc1cc2c(Nc3ccc(F)c(Cl)c3)ncnc2cc1OCCCN1CCOCC1.Cl.Cl [CANERTINIB DIHYDROCHLORIDE] = 28
• C=CC(=O)Nc1ccc2ncnc(Nc3ccc(OCc4cccc(F)c4)c(Cl)c3)c2c1.Cc1ccc(S(=O)(=O)O)cc1 = 34
• CN1CCCC(n2nc(Cc3ccc(Cl)cc3)c3ccccc3c2=O)CC1.Cl (centres undefined) [AZELASTINE HYDROCHLORIDE] = 59
• Cc1c(-c2ccc(O)cc2)n(Cc2ccc(OCCN3CCCCCC3)cc2)c2ccc(O)cc12 [BAZEDOXIFENE] = 19
• Cn1cc(-c2[nH]c3cc(NC(=O)[C@H](N)C4CCCCC4)cc4c3c2C=NNC4=O)cn1 = 41
• C=CC(=O)Nc1cccc(C(=O)Nc2ccc(Nc3cc(-c4[nH]c(SC)nc4C)ccn3)cc2)c1 = 39
